- Tested on: MCF7
- Method Notes: Antiproliferative activity against human MCF7 cells after 48 hrs by MTT assay
- Type: functional, cell-based
- Particulars: MCF7, 48 h
pIC50: −log10 of the molar value.
Property Name: pIC50

| Molecule | Value Modifier | Numeric Result |
| --- | --- | --- |
| CCN1C(=O)C2(Cn3nncc3CO2)c2cc(Br)ccc21 (configuration not stated) | < | 4.30 |
| CN1C(=O)C2(Cn3nncc3CO2)c2cc(F)ccc21 (configuration not stated) | < | 4.30 |
| O=C1N(Cc2ccc(Br)cc2)c2ccccc2C12Cn1nncc1CO2 (configuration not stated) | = | 4.87 |
| N#Cc1ccc(CN2C(=O)C3(Cn4nncc4CO3)c3cc(Cl)ccc32)cc1 (configuration not stated) | = | 4.99 |
| CCN1C(=O)C2(Cn3nncc3CO2)c2ccccc21 (configuration not stated) | = | 5.05 |
| Cc1ccc2c(c1)C1(Cn3nncc3CO1)C(=O)N2C (configuration not stated) | = | 5.02 |
| CN1C(=O)C2(Cn3nncc3CO2)c2cc(Br)ccc21 (configuration not stated) | < | 4.30 |
| O=C1N(Cc2ccccc2)c2ccccc2C12Cn1nncc1CO2 (configuration not stated) | = | 4.75 |
| Cc1ccc2c(c1)C1(Cn3nncc3CO1)C(=O)N2Cc1ccccc1 (configuration not stated) | = | 4.70 |
| CN1C(=O)C2(Cn3nncc3CO2)c2cc(Cl)ccc21 (configuration not stated) | = | 4.45 |
| O=C1N(Cc2ccc(Br)cc2)c2ccc(Cl)cc2C12Cn1nncc1CO2 (configuration not stated) | = | 4.50 |
| CCN1C(=O)C2(Cn3nncc3CO2)c2cc(Cl)ccc21 (configuration not stated) | = | 4.54 |

----------
- Tested on: MCF7
- Method Notes: Antiproliferative activity against human MCF7 cells after 48 hrs by MTT assay
- Type: functional, cell-based
- Particulars: MCF7, 48 h
pIC50: −log10 of the molar value.
Property Name: pIC50

| Compound | Property Name | Value Modifier | Numeric Result |
| --- | --- | --- | --- |
| O=C1N(Cc2ccc(Br)cc2)c2ccc(F)cc2C12Cn1nncc1CO2 (centres undefined) | pIC50 | = | 5.08 |
| O=C1N(Cc2ccccc2)c2ccc(F)cc2C12Cn1nncc1CO2 (centres undefined) | pIC50 | = | 4.44 |
| COc1cccc2c1C(=O)c1c(O)c3c(c(O)c1C2=O)C[C@@](O)(C(=O)CO)C[C@@H]3O[C@H]1C[C@H](N)[C@H](O)[C@H](C)O1 | pIC50 | = | 5.98 |
| CN1C(=O)C2(Cn3nncc3CO2)c2ccccc21 (centres undefined) | pIC50 | = | 4.56 |
| CCN1C(=O)C2(Cn3nncc3CO2)c2cc(F)ccc21 (centres undefined) | pIC50 | < | 4.30 |
| O=C1N(Cc2ccccc2)c2ccc(Cl)cc2C12Cn1nncc1CO2 (centres undefined) | pIC50 | = | 4.78 |
| N#Cc1ccc(CN2C(=O)C3(Cn4nncc4CO3)c3ccccc32)cc1 (centres undefined) | pIC50 | = | 4.77 |
| O=C1N(Cc2ccc(Br)cc2)c2ccc(Br)cc2C12Cn1nncc1CO2 (centres undefined) | pIC50 | = | 5.20 |
| O=C1N(Cc2ccccc2)c2ccc(Br)cc2C12Cn1nncc1CO2 (centres undefined) | pIC50 | = | 4.53 |

----------
Form field: pIC50 (one value per entry).
- System: A549
- Method Notes: Antiproliferative activity against human A549 cells after 48 hrs by MTT assay
- Type: functional, cell-based
- Particulars: A549, 48 h
pIC50: −log10 of the molar value.
Property Name: pIC50

| Compound | Value Modifier | Numeric Result |
| --- | --- | --- |
| N#Cc1ccc(CN2C(=O)C3(Cn4nncc4CO3)c3ccccc32)cc1 (centres undefined) | = | 4.90 |
| O=C1N(Cc2ccc(Br)cc2)c2ccccc2C12Cn1nncc1CO2 (centres undefined) | = | 4.84 |
| O=C1N(Cc2ccc(Br)cc2)c2ccc(F)cc2C12Cn1nncc1CO2 (centres undefined) | = | 5.36 |
| O=C1N(Cc2ccc(Br)cc2)c2ccc(Br)cc2C12Cn1nncc1CO2 (centres undefined) | = | 5.37 |
| CN1C(=O)C2(Cn3nncc3CO2)c2cc(F)ccc21 (centres undefined) | < | 4.30 |
| Cc1ccc2c(c1)C1(Cn3nncc3CO1)C(=O)N2Cc1ccccc1 (centres undefined) | = | 4.84 |
| O=C1N(Cc2ccccc2)c2ccccc2C12Cn1nncc1CO2 (centres undefined) | = | 4.98 |
| O=C1N(Cc2ccccc2)c2ccc(Cl)cc2C12Cn1nncc1CO2 (centres undefined) | = | 4.89 |
| O=C1N(Cc2ccccc2)c2ccc(F)cc2C12Cn1nncc1CO2 (centres undefined) | = | 4.70 |

----------
- Tested on: A549
- Method Notes: Antiproliferative activity against human A549 cells after 48 hrs by MTT assay
- Format: functional, cell-based
- Particulars: A549, 48 h

| Compound | U | Value Modifier | IC50 |
| --- | --- | --- | --- |
| CCN1C(=O)C2(Cn3nncc3CO2)c2cc(F)ccc21 (configuration not stated) | µM | > | 50 |
| CN1C(=O)C2(Cn3nncc3CO2)c2cc(Br)ccc21 (configuration not stated) | µM | > | 50 |
| CCN1C(=O)C2(Cn3nncc3CO2)c2cc(Br)ccc21 (configuration not stated) | µM | > | 50 |
| CN1C(=O)C2(Cn3nncc3CO2)c2cc(Cl)ccc21 (configuration not stated) | µM | > | 50 |
| N#Cc1ccc(CN2C(=O)C3(Cn4nncc4CO3)c3cc(Cl)ccc32)cc1 (configuration not stated) | µM | = | 7.94 |
| CCN1C(=O)C2(Cn3nncc3CO2)c2cc(Cl)ccc21 (configuration not stated) | µM | = | 15.8 |
| O=c1[nH]cc(F)c(=O)[nH]1 [FLUOROURACIL] | µM | = | 7.24 |
